- measured_target: SRPK1 (Homo sapiens, UniProt Q96SB4)
- Construct: purchased MRC in Dundee (Premier Screen service)
- Sequence (Q96SB4 whole entry): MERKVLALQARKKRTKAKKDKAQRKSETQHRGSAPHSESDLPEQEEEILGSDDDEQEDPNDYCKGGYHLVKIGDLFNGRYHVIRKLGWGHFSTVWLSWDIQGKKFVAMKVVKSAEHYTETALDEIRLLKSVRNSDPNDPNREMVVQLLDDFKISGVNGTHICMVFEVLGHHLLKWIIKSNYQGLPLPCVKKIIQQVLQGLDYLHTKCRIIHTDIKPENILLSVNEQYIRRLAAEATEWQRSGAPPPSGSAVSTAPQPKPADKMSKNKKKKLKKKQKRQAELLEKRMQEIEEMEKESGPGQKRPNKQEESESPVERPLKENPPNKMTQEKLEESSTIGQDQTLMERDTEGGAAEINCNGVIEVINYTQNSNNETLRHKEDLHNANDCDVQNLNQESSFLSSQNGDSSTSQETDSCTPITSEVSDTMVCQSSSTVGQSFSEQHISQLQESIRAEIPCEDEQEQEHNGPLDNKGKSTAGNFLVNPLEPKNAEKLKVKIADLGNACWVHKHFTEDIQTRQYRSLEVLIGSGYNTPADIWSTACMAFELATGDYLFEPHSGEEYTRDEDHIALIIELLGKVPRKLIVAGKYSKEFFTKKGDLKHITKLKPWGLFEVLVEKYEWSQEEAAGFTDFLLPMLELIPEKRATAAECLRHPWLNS
- protocol_notes: Premier Screen kinase activity screening and IC50 determination (33P ATP filter binding)
- Assay type: biochemical
- setup_conditions: second determination, 10 concentrations, read-out: IC50
value_type: IC50 (µM)
Numbers only here, please. The scale is µM.

Problem: I'd like to know its IC50. The molecule in question is O=C(Nc1cc(C(F)(F)F)cc(C(F)(F)F)c1)Nc1ccc(Br)cc1-c1nnn[nH]1 [SCO-101]
Result: 3

###

- protocol_notes: Cell viability (MTT assay)
- Format: cell-based
- setup_conditions: human, HT29 SN38 resistant colon cancer cells, HT29 SN38 resistant, SCO-101 20 μM alone, read-out: cell viability, % of untreated control cells
value_type: viability at 72 h, 20 μM (%)
Numbers only here, please. The scale is %.

Problem: I'd like to know its viability at 72 h, 20 μM. The compound in question is O=C(Nc1cc(C(F)(F)F)cc(C(F)(F)F)c1)Nc1ccc(Br)cc1-c1nnn[nH]1
Result: 96
